system: SF-268 CNS; assay: NCI-60 one-dose screen, 48 h (100 = growth as untreated, 0 = no growth, -100 = all killed); conditions: 10 µM unless noted
This is part of a sample that, as a whole, favours compounds with a hit. Of some 83,000 tested, about 20% had one in any assay.
Parameter: growth. Scope: all listed entries.

| smilesStr | growth [%] |
| --- | --- |
| O=[N+]([O-])c1cnc(Sc2ccncn2)c([N+](=O)[O-])c1 | 101 |
| COc1ccc(CCN2CCCN3C2=Nc2ccccc2S3(=O)=O)cc1 | 63.1 |
| Cc1nn(-c2ccccc2)c2ncc3c(c12)C(=O)N(Cc1ccccc1)C3=O | 81.3 |
| Cn1cc(-c2csc(-c3cn(C)c4ncccc34)n2)c2cc(Br)cnc21 | 105 |
| C[n+]1c2ccccc2c(Nc2ccc(N3CCCCC3)cc2)c2[nH]c3ccccc3c21 | -93.4 |

----------
The following compounds are listed with their measured growth values.
test system: OVCAR-8 ovarian; experiment: NCI-60 one-dose screen, 48 h (100 = growth as untreated, 0 = no growth, -100 = all killed); settings: 10 µM unless noted
The panel holds about 83,000 compounds, 20% with a hit somewhere; the sample as a whole holds those more often.
assayMetric: growth (%)

| compound | assayMetric | obsValue |
| --- | --- | --- |
| COc1ccc(-c2nn(-c3cccc(Cl)c3)cc2C2CC(c3ccccc3)=NN2C(C)=O)cc1 (configuration not stated) | growth | 56.3 |
| CCOC(=O)C1C(=O)OC2CCCCC21 (configuration not stated) | growth | 99.5 |
| C=C(C)[C@@H]1C[C@H](O)Cc2cc(Cl)cc(Cl)c2N1 | growth | 99.6 |
| N=c1ccn2c(n1)O[C@@H]1[C@@H](O)[C@H](CO)O[C@@H]12 | growth | 25.7 |
| CC(=O)Oc1c(C)c(OC(C)=O)c2c(c1C(C)=O)OC1CC(=O)C(C(C)=O)=C(O)C21C (configuration not stated) | growth | 105 |
| O=C1NCN(c2ccccc2)C12CCN(CCCC(c1ccc(F)cc1)c1ccc(F)cc1)CC2 | growth | 66.1 |
| c1ccc(-c2nnc(Nc3nnc(-c4ccccc4)s3)s2)cc1 | growth | 103 |
| CCC(C)CC(C)C(=O)c1c(O)ccn(OC)c1=O (configuration not stated) | growth | 66.3 |
| CCn1c2ccccc2c2ccc(C(C)=O)cc21 | growth | 104 |
| CC/C(=C\c1ccc(N(C)C)cc1)c1ccncc1 | growth | 54.7 |
| NNC(=O)NO | growth | 102 |
| Cc1scc2c1N(C(=O)CN1CCN(C)CC1)c1ccccc1NC2=O | growth | 102 |

----------
Test system: T-47D breast
Assay: NCI-60 one-dose screen, 48 h (100 = growth as untreated, 0 = no growth, -100 = all killed)
Settings: 10 µM unless noted
Protocol: Growth inhibition of the T-47D human tumor cell line is measured as a screen for anti-cancer activity. Cells are grown in 96 well plates and exposed to the test compound for 48 hours. Compounds are tested at a single concentration, which is 10^-5 M for most compounds. The reported endpoint is percent growth (GI% or GIPRCNT), where numbers from 0 - 100% represent growth inhibition, and numbers from -100% - 0 represent cell death. For example, a value of 40 represents 60% growth inhibition. […]
The panel holds about 83,000 compounds, 20% with a hit somewhere; the sample as a whole holds those more often.

| smilesStr | growth [%] |
| --- | --- |
| O=[N+]([O-])c1ccc(N/N=C\c2ccccc2[N+](=O)[O-])nc1 | 107 |
| O=C1/C(=C/c2ccc([N+](=O)[O-])s2)Oc2ccc(Br)cc21 | -55.7 |
| c1ccc(-n2nnnc2-c2cccc3ccccc23)cc1 | 31.8 |
| COc1cc(/C=C/C(=O)N2CCN(C(=O)/C=C/c3ccccc3)CC2)cc(OC)c1OC | 110 |
| COc1ccc2c(c1)C(=O)c1c-2c(=O)n(CCCCCCC(=O)NO)c2ccccc12 | -11.8 |
| CN1C(=O)C(=Cc2cn(Cc3ccccc3)c3ccc(Br)cc23)C(=O)N(C)C1=O | 83.7 |
| COc1ccc2[nH]c(-c3ccccc3)cc2c1 | 72 |
| CC(C)(C)c1cc(O)c(O)c(C(C)(C)C)c1 | 12.8 |
| Fc1ccc([C@@H]2CCNC[C@H]2COc2ccc3c(c2)OCO3)cc1 | 63.7 |
| COc1ccc(-c2cc(C(=O)Nc3nc4cc(C)c(C)cc4s3)nc3cc(-c4ccccc4)nn23)cc1OC | 103 |
